Hey, just so you know, these numbers are from ChEMBL document CHEMBL2046318.

Tested on: CWR22R
Assay: Inhibition of prostate specific antigen expression in human 22Rv1 cells assessed as PSA protein level at 10 uM after 72 hrs by densitometry relative to untreated control
Type: functional
Parameters: scale not given: the % may be the effect or the level left
So basically, if Activity comes in under 80% it's Criterion met, and if it's 80% or more it's Criterion not met.

>>> df
                                    compound              label
 0       COc1ccc(-c2oc3cc(F)ccc3c(=O)c2O)cc1      Criterion met
 1  COc1ccc(-c2oc3ccccc3c(=O)c2O)cc1OC [3-HYDROXY-3',4'-DIMETHOXYFLAVONE]      Criterion met
 2      O=c1c(O)c(-c2ccc(O)cc2)oc2cc(F)ccc12      Criterion met
 3  O=c1c(O)c(-c2cc(O)c(O)c(O)c2)oc2cc(F)cc(F)c12  Criterion not met
 4    COc1cc(-c2oc3ccccc3c(=O)c2O)cc(OC)c1OC      Criterion met
 5      COc1cc(OC)cc(-c2oc3ccccc3c(=O)c2O)c1  Criterion not met
 6  COc1cc(-c2oc3ccc(F)cc3c(=O)c2O)cc(OC)c1OC      Criterion met
 7  O=c1c(O)c(-c2cc(O)c(O)c(O)c2)oc2cc(O)ccc12 [ROBINETIN]      Criterion met
 8  O=c1c(O)c(-c2cc(O)c(O)c(O)c2)oc2cc(O)cc(O)c12 [MYRICETIN]  Criterion not met
 9  COc1cc(-c2oc3cc(F)ccc3c(=O)c2O)cc(OC)c1OC      Criterion met
10   O=c1c(O)c(-c2cc(O)c(O)c(O)c2)oc2ccccc12  Criterion not met
11          COc1ccc(-c2oc3ccccc3c(=O)c2O)cc1  Criterion not met
12   COc1cc(-c2oc3ccccc3c(=O)c2OC)cc(OC)c1OC  Criterion not met
13  O=c1c(O)c(-c2ccc(O)cc2)oc2cc(O)ccc12 [RESOKAEMPFEROL]      Criterion met
14  O=c1c(O)c(-c2ccc(O)c(O)c2)oc2cc(O)cc(O)c12 [QUERCETIN]      Criterion met
15  O=c1c(O)c(-c2ccc(O)c(O)c2)oc2cc(O)ccc12 [FISETIN]      Criterion met
16    COc1cc(-c2oc3ccccc3c(=O)c2F)cc(OC)c1OC      Criterion met
17  O=c1c(O)c(-c2ccc(O)c(O)c2)oc2cc(F)cc(F)c12      Criterion met
18  COc1cc(-c2oc3cc(F)cc(F)c3c(=O)c2O)cc(OC)c1OC  Criterion not met
19  O=c1c(O)c(-c2ccccc2)oc2ccccc12 [FLAVONOL]  Criterion not met
